target: RSV F protein of subtype B (18537) on recombinant mKate-RSV virus (Respiratory syncytial virus subtype B …, UniProt P13843 26-574); assay: cell-based or functional assay

- binder: "ADI-18944 (antibody, V domains shown, full-length IgG from yeast) VH: QVQLVQSGAEVKKPGASVKVSCKTSGYTFSNYGISWLRQAPGQGLEWMAWISPYNGNTKSAQRFQGRVIMTTDTSTRTAHMEVKSLRTDDTATYYCARDPAVDAIPMLDYWGQGTTVTVSS VL: DIQVTQSPLSLPVTLGQPASISCRSSQSLVYTDGNTYLSWFQQRPGQSPRRLIYRVSHRDSGVPDRFTGSGSGTDFTLIIRRVEAEDVGVYYCMQGTHWPLTFGGGTKVEIK"
  unit.tag: "µg/mL"
  Neut IC50 (µg/ml) subtype B: 0.074
- binder: "ADI-18898 (antibody, V domains shown, full-length IgG from yeast) VH: QVQLVQSGTEVKKPGASVKVSCKAAGYTFSNYGVSWVRQAPGQGLEWMGWISAYNGNTKFAQKVQGRLTMTTDTSTSTAYMELRNLRSDDTAVYYCARESGATAAAMFDYWGQGTLVTVSS VL: EIVLTQSPLSLPVTLGQPASISCRSSQSLEYSDGNIYLSWFQQRPGQSPRRLIYKVSHRDSGVPDRFSGSGSGTDFTLKIARVEAEDVAVYYCMQAIHWPRTFGQGTKVEIK"
  unit.tag: "µg/mL"
  Neut IC50 (µg/ml) subtype B: 0.097
- binder: "ADI-18894 (antibody, V domains shown, full-length IgG from yeast; also called Antibody Number 249; Ab # 249) VH: QVQLVQSGGGVVQPGRSLKHSCAASGFTFNNYAIHWVRQAPGKGLEWVAAISYDGSNEYYSNSVKGRFTISRDNSKYTLYLQMNSLRPEDTAVYYCARGASYYYVSSDLGYWGQGTLVTVSS VL: QPVLTQPPSVSGAPGQRVTISCTGSSSNIGSGYDVHWYQQLPGTAPKVVIYGNINRPSGVPERFSGSKSGTSASLAITGLQAEDEADYYCQSYDSLSASWVFGGGTKLTVL"
  unit.tag: "µg/mL"
  Neut IC50 (µg/ml) subtype B: 0.123
